From: patent US20240002497A1

Target or test system: T1, huNav1.7α + β1-β2-β3 (human, UniProt Q15858 1-1988; A5A6L6 19-218; O60939 30-215; Q2KI11 23-215)
T1 construct: Cell line (CHO FlpIn, HEK FlpIn, transient HEK293T) is named under assay; also called huNav1.7-beta1-beta2-beta3; human Nav1.7α with Navβ1, Navβ2 and Navβ3
Procedure details: competition FACS, HEK FlpIn cells, vs EC30 of CMYC3-F0103265B04
Decision: IC50 beneath 80 nM gives 1; IC50 meeting or exceeding 80 nM gives -1.

{"columns": ["Binder", "Assigned category"],
 "data": [
  ["F0103262C02 (VHH, entry includes the FLAG-HIS6 tag; also called F0103262C02 (parental)-FLAG-HIS6; F103262CO2) VHH: EVQLVESGGGLVQAGGSLTLSCAASGLPFGLYILGWIRRAPGKERDFVAAISRSGRDTVYANSVKGRFTISRDNAKNMVYLRMDNLRPEDTAAYYCAVDSVPRGTPTITESEYAIWGQGTLVTVSS", -1]
]}

Is 80 nM strictly greater than the binder's reported IC50? binder: F0103265B04 (VHH, entry includes the FLAG-HIS6 tag; also called F0103265B04 (parental)-FLAG-HIS6) VHH: EVQLVESGGGLVQPGGSLRLSCAAPSFIFSNNYMEWYRQAPGKQRDWVARITGRGNTNYLDSVKGRFTISRDDAKNTVYLEIDSLKPEDTAVYYCSALWYGGRAWGKGTLVTVSS
1

Is 80 nM strictly greater than the binder's reported IC50? binder: F0103387G05 (VHH, entry includes the FLAG-HIS6 tag; also called F0103387G05 (parental)-FLAG-HIS6) VHH: EVQLVESGGGLVQAGGSLRLSCDASGRILRIGYMRWHRQGAGKQREFVARITDDSATDYADSVKGRFTISRDNAKNTVYLQMNNLNPEDTAVYYCEALVTASVRGGSIHSGTYWGRGTLVTVSS
1

Is 80 nM strictly greater than the binder's reported IC50? binder: F0103262B06 (VHH, entry includes the FLAG-HIS6 tag; also called F0103262B06 (parental)-FLAG-HIS6) VHH: EVQLVESGGGLVQPGGSLRLSCAGSTRTFSTYAMGWFRQAPGREREFVAHINFSGSSTRYADSVKGRFTISRDNAKNMGYLQMNSLKPEDTAVYYCAARWVAGPPRYDYEYWGQGTLVTVSS
1

Is 80 nM strictly greater than the binder's reported IC50? binder: F0103265A11 (VHH, entry includes the FLAG-HIS6 tag; also called F0103265A11 (parental)-FLAG-HIS6) VHH: EVQLVESGGGLVQPGGSLRLSCAASGMLFNANTQGWYRQAPGKQRELVAFIFSGGYTNYVDSVKGRFTISRDNAKRTMYLQMNSLKPEDSAIYYCSLSRYLGQGTLVTVSS
1
